FYI, the data here is from the supplement of paper PMC11246515.

Test: total protein half-life in vivo (active degradation + dilution); higher = more stable protein
Details: E. coli NCM3722 delta-hslV; growth: N-lim chemostat; doubling time 6 h
observation-type: total protein half-life in vivo (h)

MSNWPYPRIVAHRGGGKLAPENTLASIDVGAKYGHKMIEFDAKLSKDGEIFLLHDDNLERTSNGWGVAGELNWQDLLRVDAGSWYSKMFKGEPLPLLSQVAERCREHGMMANIEIKPTTGTGPLTGKMVALAARELWAGMTPPLLSSFEIDALEAAQQAAPELPRGLLLDEWRDDWRELTARLGCVSIHLNHKLLNKARVMQLKDAGLRILVYTVNKPQRAAELLRWGVDCICTDAIDVIGPNFTAQ :: 3.65
MSEALLNAGRQTLMLELQEASRLPERLGDDFVRAANIILHCEGKVVVSGIGKSGHIGKKIAATLASTGTPAFFVHPAEALHGDLGMIESRDVMLFISYSGGAKELDLIIPRLEDKSIALLAMTGKPTSPLGLAAKAVLDISVEREACPMHLAPTSSTVNTLMMGDALAMAVMQARGFNEEDFARSHPAGALGARLLNKVHHLMRRDDAIPQVALTASVMDAMLELSRTGLGLVAVCDAQQQVQGVFTDGDLRRWLVGGGALTTPVNEAMTVGGTTLQSQSRAIDAKEILMKRKITAAPVVDENGKLTGAINLQDFYQAGII :: 4.52
MLKRFFITGTDTSVGKTVVSRALLQALASQGKTVAGYKPVAKGSKETPEGLRNKDALVLQSVSTIELPYEAVNPIALSEEESSVAHSCPINYTLISNGLANLTEKVDHVVVEGTGGWRSLMNDLRPLSEWVVQEQLPVLMVVGIQEGCINHALLTAQAIANDGLPLIGWVANRINPGLAHYAEIIDVLGKKLPAPLIGELPYLPRAEQRELGQYIRLAMLRSVLAVDRVTV [P0A6E9] :: 2

====

Assay: total protein half-life in vivo (active degradation + dilution); higher = more stable protein
Conditions: wild type E. coli NCM3722; growth: P-lim chemostat; doubling time 6 h
observation-type: total protein half-life in vivo (h)

MNKTQLIDVIAEKAELSKTQAKAALESTLAAITESLKEGDAVQLVGFGTFKVNHRAERTGRNPQTGKEIKIAAANVPAFVSGKALKDAVK [P0ACF0] :: 4.73
MIEFSHVSKLFGAQKAVNDLNLNFQEGSFSVLIGTSGSGKSTTLKMINRLVEHDSGEIRFAGEEIRSLPVLELRRRMGYAIQSIGLFPHWSVAQNIATVPQLQKWSRARIDDRIDELMALLGLESNLRERYPHQLSGGQQQRVGVARALAADPQVLLMDEPFGALDPVTRGALQQEMTRIHRLLGRTIVLVTHDIDEALRLAEHLVLMDHGEVVQQGNPLTMLTRPANDFVRQFFGRSELGVRLLSLRSVADYVRREERADGEALAEEMTLRDALSLFVARGCEVLPVVNMQGQPCGTLHFQDLLVEA :: 4.85
MKRMIALDGAQGEGGGQILRSALSLSMITGQPFTITSIRAGRAKPGLLRQHLTAVKAATEICGATVEGAELGSQRLLFRPGTVRGGDYRFAIGSAGSCTLVLQTVLPALWFADGPSRVEVSGGTDNPSAPPADFIRRVLEPLLAKIGIHQQTTLLRHGFYPAGGGVVATEVSPVASFNTLQLGERGNIVQMRGEVLLAGVPRHVAEREIATLAGSFSLHEQNIHNLPRDQGPGNTVSLEVESENITERFFVVGEKRVSAEVVAAQLVKEVKRYLASTAAVGEYLADQLVLPMALAGAGEFTVAHPSCHLLTNIAVVERFLPVRFSLIETDGVTRVSIE :: 5.28
MSRFIPIELHHASRLLNHGPTVLITSFDEQSQRRNIMAAAWSMPVEFEPPRVAIVVDKSTWTRELIEHNGKFGIVIPGVAATNWTWAVGSVSGRDEDKFNCYGIPVVRGPVFGLPLVEEKCLAWMECRLLPATSAQEEYDTLFGEVVSAAADARVFVEGRWQFDDDKLNTLHHLGAGTFVTSGKRVTAG :: 5.45
MEYQHWLREAISQLQASESPRRDAEILLEHVTGRGRTFILAFGETQLTDEQCQQLDALLTRRRDGEPIAHLTGVREFWSLPLFVSPATLIPRPDTECLVEQALARLPEQPCRILDLGTGTGAIALALASERPDCEIIAVDRMPDAVSLAQRNAQHLAIKNIHILQSDWFSALAGQQFAMIVSNPPYIDEQDPHLQQGDVRFEPLTALVAADSGMADIVHIIEQSRNALVSGGFLLLEHGWQQGEAVRQAFILAGYHDVETCRDYGDNERVTLGRYYQ [P0ACC1] :: 5.35
MKKWAVIISAVGLAFAVSGCSSDYVMATKDGRMILTDGKPEIDDDTGLVSYHDQQGNAMQINRDDVSQIIER :: 3.68
MDLASLRAQQIELASSVIREDRLDKDPPDLIAGADVGFEQGGEVTRAAMVLLKYPSLELVEYKVARIATTMPYIPGFLSFREYPALLAAWEMLSQKPDLVFVDGHGISHPRRLGVASHFGLLVDVPTIGVAKKRLCGKFEPLSSEPGALAPLMDKGEQLAWVWRSKARCNPLFIATGHRVSVDSALAWVQRCMKGYRLPEPTRWADAVASERPAFVRYTANQP :: 5.3
